EXPERIMENTAL_PROTOCOL: Stability test in simulated gastric fluid (SGF)
Assay type: in vitro ADME
MEASUREMENT_SETUP: simulated gastric fluid, pH 1.2, generation in SGF, 37° C., 1 hr, read-out: Parent drug HMS5552 (%)

- SMILES_STRUCTURE: "CC(C)C[C@@H](C(=O)Nc1ccn(C[C@@H](O)COC(=O)c2cccnc2)n1)N1CC(Oc2ccccc2Cl)=CC1=O"
  metabolised at 1 h, 2 µM: "0.86%"

###

EXPERIMENTAL_PROTOCOL: Caco-2 bi-directional permeability test
Assay type: in vitro ADME
MEASUREMENT_SETUP: human, Caco-2, pH 7.4, Compound A concentration 2.00 μM; read-out: Average conversion rate to parent drug HMS5552 (%) A→B

- SMILES_STRUCTURE: "CC(C)C[C@@H](C(=O)Nc1ccn(C[C@@H](O)COC(=O)c2cccnc2)n1)N1CC(Oc2ccccc2Cl)=CC1=O"
  metabolised at 2 h, 2 µM, %: 26.5
